- testSystem: rat TrxR (Rattus norvegicus)
- Sequence (O89049 1-499): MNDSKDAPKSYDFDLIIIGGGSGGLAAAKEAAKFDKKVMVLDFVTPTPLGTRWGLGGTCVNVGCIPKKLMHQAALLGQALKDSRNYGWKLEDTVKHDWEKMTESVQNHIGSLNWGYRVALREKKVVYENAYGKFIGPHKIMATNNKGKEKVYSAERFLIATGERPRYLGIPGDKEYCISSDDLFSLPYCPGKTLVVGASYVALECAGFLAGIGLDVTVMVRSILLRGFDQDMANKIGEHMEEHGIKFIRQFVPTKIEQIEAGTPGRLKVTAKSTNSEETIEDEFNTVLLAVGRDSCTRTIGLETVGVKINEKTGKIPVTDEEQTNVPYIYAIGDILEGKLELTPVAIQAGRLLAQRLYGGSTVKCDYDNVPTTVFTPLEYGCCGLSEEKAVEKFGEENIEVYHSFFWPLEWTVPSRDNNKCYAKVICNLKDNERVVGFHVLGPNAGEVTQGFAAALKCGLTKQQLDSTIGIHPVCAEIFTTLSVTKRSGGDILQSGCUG
- particulars: read-out: IC50, inhibition of DTNB reduction activity of TrxR; NADPH-reduced TrxR (80 nM), 2 h at 25 °C
observable: IC50 (nM)
Answer with a number only, understood to be in nM.

Reading of IC50 for CC1=C(CO)C2=C(C)C3(CC3)[C@@](C)(O)C(=O)C2=C1 [HMAF, hydroxymethylacylfulvene] with rat TrxR (Rattus norvegicus): 380

---

Below, each entry is listed with its recorded pIC50.
- testSystem: rat TrxR (Rattus norvegicus, UniProt O89049)
- protocolSummary: biochemical
Value format note: pIC50 is -log10 of concentration (mol/L); just state the number.

CC1=CC2=C(C)C3(CC3)[C@@](C)(O)C(=O)C2=C1 = 5.14

Below: the item to evaluate.
Item CC1=C2C(=C[C@@](C)(CO)[C@@H]2O)C(=O)[C@](C)(O)C12CC2 [illudin S, reference compound] was tested on rat TrxR (Rattus norvegicus, UniProt O89049); the reported pIC50 is 3.59
